Provenance of the data: PubChem BioAssay (EPA / NIEHS)

# Read-out: E-selectin (Homo sapiens)
# measurement.notes: BSK_3C_Eselectin: BioMAP Diversity Plus: 3C Assay for Eselectin Biomarker Activity (AID 2283015)
# condition.details: primary human endothelial cells (HUVEC); actives raise or lower the signal
The source made the active and inactive calls. Rule for the calls: active = hit-call score of the fitted dose curve at least 0.9, where 1 is the maximum; inactive = score below 0.9.
Possible outcomes: active, inactive

> print(dat)
                                    compound  class.assignment
 1                             O=[N+]([O-])O          inactive
 2  COC(C)(C)CCC[C@H](C)C/C=C/C(C)=C/C(=O)OC(C)C            active
 3  Cc1ccc(OP(=O)(Oc2ccc(C)cc2)Oc2ccc(C)cc2)cc1 (tested in a mixture with another compound)          inactive
 4  O=P1(NCCCl)OCCCN1CCCl (stereo not given)          inactive
 5  CC(C)(c1cc(Cl)c(O)c(Cl)c1)c1cc(Cl)c(O)c(Cl)c1            active
 6  CCc1cc(C)cc(CC)c1-c1c(OC(=O)C(C)(C)C)n2n(c1=O)CCOCC2            active
 7                           Oc1cc(Cl)ccc1Cl          inactive
 8            O=C1C(Cl)=C(Cl)C(=O)C(Cl)=C1Cl            active
 9          COCC(=O)N(c1c(C)cccc1C)N1CCOC1=O          inactive
10                 O=S(=O)(c1ccccc1)c1ccccc1          inactive
11    C=CC(=O)OCC(CC)CCCC (stereo not given)          inactive
12                            CCCCCCCCCCCC#N            active
13               Nc1ccc(-c2ccc(N)c(N)c2)cc1N            active
14                       CC(=O)/C=C/c1ccccc1          inactive
15  O=c1c2ccccc2c(=O)c2c1cc(Cl)c1[nH]c3c([nH]c12)c(Cl)cc1c(=O)c2ccccc2c(=O)c13          inactive
16  CC1(C)[C@H](C(=O)O[C@H](C#N)c2cccc(Oc3ccccc3)c2)[C@@H]1C=C(Br)Br          inactive
17                        [Cd+2].[Cl-].[Cl-]          inactive
18  CC(C)(C)C(O)C(Oc1ccc(-c2ccccc2)cc1)n1cncn1 (stereo not given)            active
19    CC(C)CCCCCCCOP(=O)(Oc1ccccc1)Oc1ccccc1            active
20  CCC(C)c1cc([N+](=O)[O-])cc([N+](=O)[O-])c1OC(=O)C=C(C)C (stereo not given)            active

---

# system.name: rat Peripheral-type Benzodiazepine Receptor (PBR), Tspo (gene 24230) (UniProt P16257)
# Sequence (P16257 whole entry, looked up): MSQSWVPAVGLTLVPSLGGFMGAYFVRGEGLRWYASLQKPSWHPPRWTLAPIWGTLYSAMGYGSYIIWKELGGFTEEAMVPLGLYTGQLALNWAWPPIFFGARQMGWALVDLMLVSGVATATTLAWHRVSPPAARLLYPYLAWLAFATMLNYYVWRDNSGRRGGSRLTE
# measurement.notes: NVS_MP_rPBR: NovaScreen (NVS) Membrane Protein Assay for rat Peripheral-type Benzodiazepine Receptor (PBR) (AID 2283335)
Results filed as inconclusive are left out. The source made the active and inactive calls. The calls were made as follows: active = hit-call score of the fitted dose curve at least 0.9, where 1 is the maximum; inconclusive = response in the unintended direction; inactive = score below 0.9.
Possible outcomes: active, inactive

> print(dat)
                           smiles.input  class.assignment
1             O=S(=O)(c1ccccc1)c1ccccc1            active
2            CCCOC(=O)c1ccccc1C(=O)OCCC          inactive
3            CNC(=O)Oc1cc(C)c(SC)c(C)c1            active
4  CCOP(=O)(OCC)Oc1ccc([N+](=O)[O-])cc1          inactive

---

# measurement.notes: TOX21_p53_BLA_p2_viability: Viability Assessment in the Tox21 HCT-116 p53 Agonism Beta-lactamase Assay, Phase 2 (AID 2283591);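 note: compound exposure lasted 16 h at 37 °C; actives lower the ATP signal meaning cytotoxicity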
Inconclusive results are not listed. Active and inactive are the calls of the source. Rule for the calls: active = hit-call score of the fitted dose curve at least 0.9, where 1 is the maximum; inconclusive = response in the unintended direction; inactive = score below 0.9.
Classes used: yes (active), no (inactive)

> print(dat)
                                    compound  class.assignment
 1                     Clc1ccccc1-c1ccccc1Cl                no
 2    Cc1nnc2n1-c1sc(Br)cc1C(c1ccccc1Cl)=NC2                no
 3  CCC[CH2][Sn]([CH2]CCC)([CH2]CCC)[O][Sn]([CH2]CCC)([CH2]CCC)[CH2]CCC               yes
 4  CC(=O)c1cc2c(cc1C)C(C)(C)C(C)CC2(C)C (configuration not stated)                no
 5  O=C(NC(=O)c1c(F)cccc1F)Nc1ccc(Oc2ccc(C(F)(F)F)cc2Cl)cc1F                no
 6  NC1=NC(=O)C(c2ccccc2)O1 (configuration not stated)                no
 7               O=c1c2ccccc2[se]n1-c1ccccc1                no
 8                             O=[N+]([O-])O                no
 9            CNC(=O)Oc1ccccc1C(=O)Nc1ccccc1                no
10  Cc1cc(C)cc(C(=O)OC2C[C@H]3CC[C@@H](C2)N3C)c1 (some centres not stated)                no
11                                   CCCCC#N                no
12  CC1=C2[C@H]3OC(=O)[C@@H](C)[C@@H]3CC[C@@]2(C)C=CC1=O                no

---

# measurement.notes: ATG_CMV_CIS: Attagene CIS-FACTORIAL HepG2 Assay for human CMV (Internal Marker) (AID 2282928);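 note: endpoint acts as a background internal control marker rather than a target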
# condition.details: HepG2 CMV promoter reporter, transcription factor profiling; actives raise or lower the signal
Activity calls are given as the source filed them. Rule for the calls: active = hit-call score of the fitted dose curve at least 0.9, where 1 is the maximum; inactive = score below 0.9.
Labels: active, inactive

> print(dat)
                                    molecule  class.assignment
 1  O=CNC(N1CCN(C(NC=O)C(Cl)(Cl)Cl)CC1)C(Cl)(Cl)Cl (configuration not stated)          inactive
 2  CCCCCCC1CCOC1=O (configuration not stated)          inactive
 3  ClC1=C(Cl)[C@]2(Cl)[C@@H]3[C@@H](Cl)[C@H](Cl)C[C@@H]3[C@@]1(Cl)C2(Cl)Cl          inactive
 4                           CN(N=O)c1ccccc1          inactive
 5                    N#CC(c1ccccc1)c1ccccc1          inactive
 6  Cc1ccc(OP(=O)(Oc2ccc(C)cc2)Oc2ccc(C)cc2)cc1 (tested in a mixture with another compound)          inactive
 7          [N-]=[N+]=CC(=O)OC[C@H](N)C(=O)O          inactive
 8                              C[N+](C)=CCl          inactive
 9                       CC=Cc1ccc2c(c1)OCO2          inactive
10  CC(Cc1ccc(C(C)(C)C)cc1)CN1C[C@@H](C)O[C@@H](C)C1 (some centres not stated)            active
11  COC(=O)c1ccccc1S(=O)(=O)NC(=O)Nc1nc(C)cc(C)n1          inactive
12                      N#Cc1cc(I)c(O)c(I)c1          inactive

---

# measurement.notes: TOX21_p53_BLA_p4_viability: Viability Assessment in the Tox21 HCT-116 p53 Agonism Beta-lactamase Assay, Phase 4 (AID 2283597);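 note: hits lower the luminescence signal meaning cytotoxicity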
Inconclusive results are not listed. The source made the active and inactive calls. Rule for the calls: active = hit-call score of the fitted dose curve at least 0.9, where 1 is the maximum; inconclusive = response in the unintended direction; inactive = score below 0.9.
Labels: YES (active), NO (inactive)

> print(dat)
                                    molecule  class.assignment
 1  C[C@]12CC[C@H]3[C@@H](CCC4=C(O)C(=O)CC[C@@H]43)[C@@H]1CC[C@@H]2OC(=O)CCC1CCCC1                NO
 2                                   CCCC=NO                NO
 3  CNC(C)CC1CCCCC1 (configuration not stated)                NO
 4  COc1cc(N)c(Cl)cc1C(=O)NC1CN2CCC1CC2 (configuration not stated)                NO
 5  [O]=[Cr](=[O])([OH])[O][Cr](=[O])(=[O])[OH]               YES
 6  c1cc(OCC2CO2)ccc1Cc1ccc(OCC2CO2)cc1 (configuration not stated)                NO
 7                           NNC(=O)c1cccnc1                NO
 8  CC(Oc1ccc(Oc2ncc(C(F)(F)F)cc2Cl)cc1)C(=O)O (configuration not stated)                NO
 9         Oc1ccc(C(=C(Cl)Cl)c2ccc(O)cc2)cc1               YES
10  CN1C[C@H](CNC(=O)OCc2ccccc2)C[C@@H]2c3cccc4c3c(cn4C)C[C@H]21               YES
11                                 BrC(Br)Br                NO
12  COC(=O)[C@H]1[C@@H](OC(=O)c2ccccc2)C[C@@H]2CC[C@H]1N2C                NO
